Reference source: patent US10517889B2

Attribute: % inhibition of SMAD7 mRNA expression
# System: human SMAD7 mRNA
# run.description: Antisense inhibition of human SMAD7 mRNA expression in Hep3B cells by 5-10-5 MOE gapmers, single concentration, electroporation, RT-PCR (Example 1, Study 1 and 2)
# Assay type: cell-based
# condition.label: Study 2, electroporation with 15,000 nM antisense oligonucleotide, 5-10-5 MOE gapmers targeting SEQ ID NO: 1 and 2
Strand notation (5' to 3'): a small letter for the sugar, then the base; units joined by * are phosphorothioate-linked, units joined directly phosphodiester-linked; [ ] holds rarer units or linkages, { } end groups; capitals alone tell only the bases. e = 2'-O-(2-methoxyethyl) (MOE); [5mC] = 5-methylcytosine; d = 2'-deoxy (DNA)
Write the number in % without appending the unit.

>  <substance>
771479 (antisense eG*eG*eG*eA*eA*d[5mC]*dA*d[5mC]*d[5mC]*dT*dT*dG*dT*dG*dT*eA*e[5mC]*e[5mC]*eA*eA) [compound 771479]

>  <% inhibition of SMAD7 mRNA expression / %>
58

$$$$

Exercise: Param item = 771556 (antisense e[5mC]*e[5mC]*e[5mC]*eT*eT*d[5mC]*dA*dT*dA*d[5mC]*dA*d[5mC]*dT*dG*dT*eG*eT*eT*eT*eG) [compound 771556] ; retrieve measured % inhibition of SMAD7 mRNA expression.
Key: 30

Exercise: Give the measured % inhibition of SMAD7 mRNA expression of 771551 (antisense eA*eT*eT*eT*e[5mC]*dT*dG*d[5mC]*dT*dT*d[5mC]*d[5mC]*d[5mC]*d[5mC]*dT*e[5mC]*eT*eT*e[5mC]*e[5mC]) [compound 771551] .
Key: 18

====

# System: human SMAD7 mRNA
# run.description: Dose-dependent inhibition of human SMAD7 mRNA expression in Hep3B cells (Example 3, Study 1 and 2)
# Type: cell-based
# condition.label: 2220 nM, electroporation, approximately 16 hours, Study 2
Strand notation (5' to 3'): a small letter for the sugar, then the base; units joined by * are phosphorothioate-linked, units joined directly phosphodiester-linked; [ ] holds rarer units or linkages, { } end groups; capitals alone tell only the bases. k = constrained ethyl (cEt); [5mC] = 5-methylcytosine; d = 2'-deoxy (DNA)
Mark yes for reported % inhibition of SMAD7 mRNA expression of 60% or greater; mark no for anything smaller.

Would you please look over these solved cases?
>  <substance>
772842 (kG*kT*kT*dA*dA*dT*dA*dA*dT*dA*dT*d[5mC]*dT*kT*k[5mC]*k[5mC]; antisense) [compound 772842]

>  <qualitative.label>
no

$$$$
>  <substance>
799159 (antisense kG*kT*kG*dT*dA*dT*dG*dA*dG*dT*dT*dG*dT*kA*kG*kA) [compound 799159]

>  <qualitative.label>
no

$$$$
>  <substance>
799365 (k[5mC]*kT*k[5mC]*d[5mC]*dG*dA*dG*dT*dT*dA*dT*d[5mC]*d[5mC]*k[5mC]*k[5mC]*kA; antisense) [compound 799365]

>  <qualitative.label>
no

$$$$
>  <substance>
830099 (kG*k[5mC]*k[5mC]*dT*dT*dT*dG*dG*dA*dA*dT*dT*dA*kG*kT*kA; antisense) [compound 830099]

>  <qualitative.label>
no

$$$$
>  <substance>
830010 (antisense kG*kT*k[5mC]*dT*d[5mC]*dA*dA*dA*dT*dG*dG*dG*d[5mC]*kT*kT*k[5mC]) [compound 830010]

>  <qualitative.label>
no

$$$$
>  <substance>
830144 (antisense kG*kG*kG*dT*dG*dT*dG*d[5mC]*dA*d[5mC]*d[5mC]*dA*dG*kG*kT*kG) [compound 830144]

>  <qualitative.label>
yes

$$$$

Exercise: Hello, I need to know if 799669 (antisense kT*kA*kT*dG*dA*d[5mC]*dA*dG*dA*dT*dG*d[5mC]*d[5mC]*kA*kG*k[5mC]) [compound 799669] has measured % inhibition of SMAD7 mRNA expression not below 60%. Thanks!
Key: yes

Exercise: Entry 799067 (antisense kG*kG*kA*dT*dG*dA*dA*dA*dA*dT*dA*dA*dT*kT*kG*kG) [compound 799067] : is its % inhibition of SMAD7 mRNA expression no less than 60%?
Key: no

Exercise: Hi team, for 799143 (antisense kT*kG*kG*dG*dT*dT*dA*dT*dG*dA*d[5mC]*dG*dG*kA*k[5mC]*k[5mC]) [compound 799143] , is the recorded % inhibition of SMAD7 mRNA expression at or above 60%?
Key: yes

Exercise: I'd appreciate it if you could say whether 799673 (antisense k[5mC]*kT*kG*dA*dT*dT*dA*dA*d[5mC]*dT*dT*dT*d[5mC]*k[5mC]*kT*kT) [compound 799673] has % inhibition of SMAD7 mRNA expression at least equal to 60%.
Key: yes

Exercise: Could you tell me if the measured % inhibition of SMAD7 mRNA expression of 830037 (antisense CTATTGGCTGATCTGG; 3-10-3 cEt gapmer, further chemistry not given here) [compound 830037] reaches 60% or more?
Key: no

Exercise: Can 830180 (antisense k[5mC]*kG*kT*dG*dT*dA*d[5mC]*d[5mC]*d[5mC]*dA*dG*d[5mC]*dT*kG*k[5mC]*k[5mC]) [compound 830180] be said to have % inhibition of SMAD7 mRNA expression at or above 60%?
Key: no

Exercise: Decide: is the reported value of % inhibition of SMAD7 mRNA expression for 799496 (antisense kG*kG*kG*dT*dG*dA*dG*dG*dT*dG*dG*d[5mC]*dT*kG*k[5mC]*kG) [compound 799496] equal to or greater than 60%?
Key: no

Exercise: Could you please find out whether 799369 (antisense kA*k[5mC]*kT*d[5mC]*dA*d[5mC]*dT*dA*dA*dG*dT*d[5mC]*dT*k[5mC]*k[5mC]*kG) [compound 799369] has % inhibition of SMAD7 mRNA expression that meets 60% or exceeds it?
Key: no

Exercise: API: above_or_equal(metric=% inhibition of SMAD7 mRNA expression, cutoff=60%) for item 799412 (antisense kT*kT*k[5mC]*dT*dT*dA*d[5mC]*dA*d[5mC]*dA*dG*d[5mC]*dA*kG*k[5mC]*kG) [compound 799412]
Key: no

Exercise: % inhibition of SMAD7 mRNA expression >= 60% for 799607 (k[5mC]*k[5mC]*kA*dT*dT*dT*dA*d[5mC]*dA*dA*dA*dA*d[5mC]*kT*k[5mC]*kT; antisense) [compound 799607] ?
Key: no

Exercise: Hi team, for 799596 (kA*k[5mC]*kT*d[5mC]*dT*dG*dA*dA*d[5mC]*dG*dG*dA*dA*kA*kG*kA; antisense) [compound 799596] , is the recorded % inhibition of SMAD7 mRNA expression at or above 60%?
Key: no

Exercise: Please indicate if the recorded % inhibition of SMAD7 mRNA expression for 799366 (antisense kT*k[5mC]*kT*d[5mC]*d[5mC]*dG*dA*dG*dT*dT*dA*dT*d[5mC]*k[5mC]*k[5mC]*k[5mC]) [compound 799366] meets or exceeds 60%.
Key: no

Exercise: Dear colleague, could you confirm whether 799565 (kA*kG*kT*dA*dA*dA*d[5mC]*dA*dA*dT*dA*d[5mC]*d[5mC]*k[5mC]*kT*k[5mC]; antisense) [compound 799565] has % inhibition of SMAD7 mRNA expression at or above 60%?
Key: no

====

# Test system: human SMAD7 mRNA
# run.description: Dose-dependent inhibition of human SMAD7 mRNA expression in Hep3B cells (Example 3, Study 1 and 2)
# Assay type: cell-based
# condition.label: 1250.0 nM, electroporation, approximately 16 hours, Study 1
Strand notation (5' to 3'): a small letter for the sugar, then the base; units joined by * are phosphorothioate-linked, units joined directly phosphodiester-linked; [ ] holds rarer units or linkages, { } end groups; capitals alone tell only the bases. e = 2'-O-(2-methoxyethyl) (MOE); [5mC] = 5-methylcytosine; d = 2'-deoxy (DNA)
# Lookup of reported % inhibition of SMAD7 mRNA expression keyed by entry
Number plus unit, in that order.

Would you please look over these solved cases?
>  <substance>
771762 (antisense eG*eT*e[5mC]*eA*e[5mC]*d[5mC]*dA*d[5mC]*d[5mC]*dG*dA*dT*dG*d[5mC]*dA*eT*e[5mC]*e[5mC]*eA*eA) [compound 771762]

>  <result>
0%

$$$$
>  <substance>
771900 (antisense eA*eT*eG*e[5mC]*e[5mC]*d[5mC]*dA*d[5mC]*d[5mC]*dA*dG*dT*d[5mC]*dT*dT*e[5mC]*e[5mC]*eT*eG*eA) [compound 771900]

>  <result>
11%

$$$$
>  <substance>
771820 (antisense eG*eG*eT*e[5mC]*eA*dA*dA*d[5mC]*dT*dT*dG*dT*dG*dG*dT*eA*eA*eA*eA*eT) [compound 771820]

>  <result>
3%

$$$$
>  <substance>
771461 (antisense eG*eT*eA*eG*eA*dG*d[5mC]*d[5mC]*dT*d[5mC]*d[5mC]*d[5mC]*d[5mC]*dA*d[5mC]*eT*e[5mC]*eT*e[5mC]*eG) [compound 771461]

>  <result>
2%

$$$$

Now examine the next entry.
Exercise: Looking for the measured % inhibition of SMAD7 mRNA expression of 278478 (antisense eA*e[5mC]*eA*eT*eG*dA*d[5mC]*d[5mC]*dT*d[5mC]*d[5mC]*dG*d[5mC]*dA*d[5mC]*eA*e[5mC]*e[5mC]*eA*eT) [compound 278478] , can you help?
Key: 9%
